measurement.notes: Primary qHTS for inhibitors of nuclear receptor binding SET domain protein 2 (NSD2) in an RCH-ACV wild type WT cells (2C) (AID 1645877); further: nearly all actives have a fitted effect of over 70% in size
recorded.conditions: RCH-ACV (leukaemia line) NSD2 WT (2C) viability, CellTiter-Glo, 72 h; series mostly up to 44.9 µM
Inconclusive results are not listed. Active and inactive are the calls of the source. The call rests on the fitted dose curve; in most records, active means well fitted inhibition curve with a large enough effect; inconclusive means small, poorly fitted or top-dose-only effect; inactive means no such curve, though single readings can be large or run the other way.
Outcome field: choose from active, inactive

// known answers, use as guide
C[C@H]1COCCN1c1cc(C2(S(=O)(=O)C3CC3)CC2)nc(-c2ccc(NC(=S)NCCO)cc2)n1 : active
Nc1ncnc2c1ncn2[C@@H]1O[C@H](CO)C[C@H]1O : active
O=C1CCc2cc(S(=O)(=O)Nc3ccc(F)c(Cl)c3)c(F)cc2N1 : inactive
NC(=Nc1ccc(CCNCc2cccc(Cl)c2)cc1)c1cccs1 : active
Nc1ccc(-c2cnc(N)c(-c3ccc(Cl)cc3)c2)cn1 : active

Data request: Any idea what this test logged for `C=C1/C(=C/C=C2\CCC[C@]3(C)[C@@H]([C@H](C)/C=C/C(=O)C4CC4)CC[C@@H]23)C[C@@H](O)C[C@@H]1O` ?
Data returned: active

Data request: Same question, `Cc1cc(C)c(NC(=O)N(Cc2ccc3c(c2)Cc2ccccc2-3)C2CCCCCC2)c(C)c1` this time
Data returned: inactive

Data request: Same question, O=C1c2ccccc2-c2nc3nnnn3nc21 (tested in a mixture with another compound) this time
Data returned: active

Data request: Same question, `COC[C@H](C)Oc1cc(O[C@@H](C)Cc2ccccc2)cc(C(=O)Nc2ccc(C(=O)O)cn2)c1` this time
Data returned: inactive

Data request: Same question, `COc1cc(OC)c(C(=O)/C=C/c2ccccc2)c2c1C=CC(C)(C)O2` this time
Data returned: active

Data request: Same question, CCCCC(=O)N(Cc1ccc(-c2ccccc2-c2nn[nH]n2)cc1)C(C(=O)O)C(C)C (stereo not given) this time
Data returned: inactive

Data request: Same question, `C=CC(=O)Nc1cccc(C)c1Nc1ncc2cc(-c3c(Cl)c(OC)cc(OC)c3Cl)ccc2n1` this time
Data returned: active

====

measurement.notes: qHTS Assay for Lipid Storage Modulators (AID 1519)
recorded.conditions: Drosophila S3 cells, BODIPY lipid droplet/cell ratio, laser cytometry; measured here: cell count channel max response; cells loaded with oleic acid
Records with an inconclusive call do not appear.
quantity.kind: max response (%)
One number for each entry, in %.

Batch: max response for all items listed.
1. CCOC(=O)C(CCc1ccccc1)NC1CCc2ccccc2N(CC(=O)O)C1=O (configuration not stated)
2. CCOC(=O)[C@H](N)/C=C(\C)CP(=O)(O)O
3. Cc1o[nH]c(=O)c1CC[C@H](N)C(=O)O
4. NCCCNCCCCN(CCCN)/[N+]([O-])=N/O

Data returned:
11.8
1.46
-7.36
-8.77

Batch: max response for all items listed.
1. O=C(OC1Cc2c(O)cc(O)cc2OC1c1cc(O)c(=O)c2c(O)c(O)cc(C3Oc4cc(O)cc(O)c4CC3OC(=O)c3cc(O)c(O)c(O)c3)c2c1)c1cc(O)c(O)c(O)c1 (configuration not stated)
2. S=C(Nc1ccccc1)Nc1nccs1
3. CCN(Cc1ccncc1)C(=O)[C@@H](CO)c1ccccc1
4. NC(=O)C[C@H](NC(=O)Cc1ccc(O)cc1O)C(=O)O
5. O=c1c(-c2cc(O)c(O)c(O)c2)coc2cc(O)c(O)c(O)c12
6. CC(C)=CCCC1(C)C=Cc2c(O)c3c(c(CC=C(C)C)c2O1)OC12C(=CCCC1C(C)(C)O[C@@]2(C/C=C(\C)C(=O)O)C(=O)O)C3=O (some centres not stated)
7. CO[C@]1(C2=NCCN2)COc2ccccc2O1

Data returned:
1: -10.5; 2: -12.9; 3: -10.2; 4: -23.7; 5: 7.38; 6: 0.914; 7: 8.44

Data request: GET /values?readout=max response&item= `C=C[C@@]1(C)CC(=O)[C@@]2(O)[C@@]3(C)[C@@H](O)CCC(C)(C)[C@@H]3[C@H](OC(=O)CCN(C)C)[C@H](OC(C)=O)[C@@]2(C)O1`
Data returned: -14.6

Ref: PubChem BioAssay (NCATS)
